Measured Selectivity [Ba/F3 (parental/Bcr-Abl ^T315I)] values are reported for all entries that follow.
# System: Ba/F3 Bcr-Abl T315I cells
# EXPERIMENTAL DETAILS: Cell proliferation analysis, Ba/F3 Bcr-Abl T315I
# Type: cell-based
# TEST SETTINGS: ratio of Ba/F3 parental to Ba/F3 Bcr-Abl T315I
MEASURED QUANTITY: Selectivity [Ba/F3 (parental/Bcr-Abl ^T315I)]

item_smiles=CCn1cc(C#Cc2cc(C(=O)Nc3ccc(CN(C)C)c(C(F)(F)F)c3)ccc2C)c2c(N)ncnc21 result=150~500
item_smiles=CCn1cc(C#Cc2cc(NC(=O)c3ccc(CN4CCN(C)CC4)c(C(F)(F)F)c3)ccc2C)c2c(N)ncnc21 result=100~150
item_smiles=Cc1ccc(C(=O)Nc2ccc(CN3CCN(C)CC3)c(C(F)(F)F)c2)cc1C#Cc1cn([C@H]2CC[C@H](O)CC2)c2ncnc(N)c12 result=0~50
item_smiles=Cc1ccc(C(=O)Nc2ccc(C)c(C(F)(F)F)c2)cc1C#Cc1cn([C@H]2CC[C@H](O)CC2)c2ncnc(N)c12 result=150~500
item_smiles=CCn1cc(C#Cc2cc(C(=O)Nc3cc(-n4cnc(C)c4)cc(C(F)(F)F)c3)ccc2C)c2c(N)ncnc21 result=150~500
item_smiles=Cc1ccc(C(=O)Nc2ccc(CN3CCN(C)CC3)c(C(F)(F)F)c2)cc1C#Cc1nc(C(C)C)n2ccnc(N)c12 result=0~50
item_smiles=Cc1ccc(C(=O)Nc2cccc(C(F)(F)F)c2)cc1C#Cc1cn(C(C)C)c2ncnc(N)c12 result=100~150
item_smiles=Cc1ccc(C(=O)Nc2cccc(C(F)(F)F)c2)cc1C#Cc1cn(C)c2ncnc(N)c12 result=50~100
item_smiles=CCn1cc(C#Cc2cc(NC(=O)c3cc(-n4cnc(C)c4)cc(C(F)(F)F)c3)ccc2C)c2c(N)ncnc21 result=50~100
item_smiles=Cc1cn(-c2cc(NC(=O)c3ccc(C)c(C#Cc4cn(C(C)C)c5ncnc(N)c45)c3)cc(C(F)(F)F)c2)cn1 result=150~500
item_smiles=Cc1ccc(C(=O)Nc2ccc(CN3CCN(C)CC3)c(C(F)(F)F)c2)cc1C#Cc1cn(C(C)C)c2ncnc(N)c12 result=0~50
item_smiles=CCn1cc(C#Cc2cc(C(=O)Nc3ccc(CN4CCN(C)CC4)c(C(F)(F)F)c3)ccc2C)c2c(N)ncnc21 result=100~150
item_smiles=Cc1cn(-c2cc(NC(=O)c3ccc(C)c(C#Cc4cn(C)c5ncnc(N)c45)c3)cc(C(F)(F)F)c2)cn1 result=>500
item_smiles=Cc1ccc(NC(=O)c2ccc(CN3CCN(C)CC3)c(C(F)(F)F)c2)cc1C#Cc1cn([C@H]2CC[C@H](O)CC2)c2ncnc(N)c12 result=0~50

----------
# key: entry, value: microsomal CLint at 1 μM
# EXPERIMENTAL DETAILS: Metabolic stability evaluation, human liver microsome assay
# Type: in vitro ADME
# TEST SETTINGS: pH 7.4; human liver microsomes 0.5 mg/mL, compound 1 μM, 37° C.; read-out: HLM Clint
# Method: Microsome assay: human liver microsomes: 0.5 mg/mL, Xenotech; coenzyme (NADPH/NADH): 1 mM, Sigma Life Science; magnesium chloride: 5 mM, 100 mM phosphate buffer (pH is 7.4). […] Data analysis: LC-MS/MS system was used to detect peak area of corresponding compound and internal standard, peak area ratio of compound to internal standard was calculated. […]
MEASURED QUANTITY: microsomal CLint at 1 μM (µL/min/mg)

item_smiles=CCn1cc(C#Cc2cc(NC(=O)c3ccc(CN4CCN(C)CC4)c(C(F)(F)F)c3)ccc2C)c2c(N)ncnc21 measured_quantity="microsomal CLint at 1 μM" quantitative_result=17
item_smiles=CCn1cc(C#Cc2cc(C(=O)Nc3cccc(C(F)(F)F)c3)ccc2C)c2c(N)ncnc21 measured_quantity="microsomal CLint at 1 μM" quantitative_result=3.5
item_smiles=CCn1cc(C#Cc2cc(NC(=O)c3cccc(C(F)(F)F)c3)ccc2C)c2c(N)ncnc21 measured_quantity="microsomal CLint at 1 μM" quantitative_result=17.2
item_smiles=CCn1cc(C#Cc2cc(C(=O)Nc3ccc(CN4CCN(C)CC4)c(C(F)(F)F)c3)ccc2C)c2c(N)ncnc21 measured_quantity="microsomal CLint at 1 μM" quantitative_result=19.9

----------
Listed here are compounds together with their documented pIC50.
# SYSTEM UNDER TEST: ABL^T315I (Homo sapiens (Human), UniProt P00519, T315I)
# EXPERIMENTAL DETAILS: Biochemical kinase analysis, ABL T315I
pIC50: −log10 of the molar value.
MEASURED QUANTITY: pIC50

item_smiles=Cc1cn(-c2cc(NC(=O)c3ccc(C)c(C#Cc4cn(C)c5ncnc(N)c45)c3)cc(C(F)(F)F)c2)cn1 result="7.30 to 8.30"
item_smiles=CCn1cc(C#Cc2cc(NC(=O)c3ccc(CN4CCN(C)CC4)c(C(F)(F)F)c3)ccc2C)c2c(N)ncnc21 result="≥ 8.30"
item_smiles=Cc1ccc(C(=O)Nc2ccc(CN3CCN(C)CC3)c(C(F)(F)F)c2)cc1C#Cc1nc(C(C)C)n2ccnc(N)c12 result="≥ 8.30"
item_smiles=CCc1nc(C#Cc2cc(C(=O)Nc3cccc(C(F)(F)F)c3)ccc2C)c2c(N)nccn12 result="7.00 to 7.30"

----------
# SYSTEM UNDER TEST: ABL^T315I (Homo sapiens (Human), UniProt P00519, T315I)
# EXPERIMENTAL DETAILS: Biochemical kinase analysis, ABL T315I
MEASURED QUANTITY: IC50

item_smiles=Cc1ccc(NC(=O)c2ccc(CN3CCN(C)CC3)c(C(F)(F)F)c2)cc1C#Cc1cn([C@H]2CC[C@H](O)CC2)c2ncnc(N)c12 measured_quantity=IC50 result="≤ 5 nM"
item_smiles=Cc1ccc(C(=O)Nc2cccc(C(F)(F)F)c2)cc1C#Cc1cn(C)c2ncnc(N)c12 measured_quantity=IC50 result="≤ 5 nM"
item_smiles=Cc1ccc(C(=O)Nc2cccc(C(F)(F)F)c2)cc1C#Cc1cn([C@H]2CC[C@H](O)CC2)c2ncnc(N)c12 measured_quantity=IC50 result="5 to 50 nM"
item_smiles=Cc1ccc(NC(=O)c2ccc(CN3CCN(C)CC3)c(C(F)(F)F)c2)cc1C#Cc1cn(C)c2ncnc(N)c12 measured_quantity=IC50 result="≤ 5 nM"
item_smiles=CCn1cc(C#Cc2cc(C(=O)Nc3cccc(C(F)(F)F)n3)ccc2C)c2c(N)ncnc21 measured_quantity=IC50 result="5 to 50 nM"
item_smiles=Cc1ccc(C(=O)Nc2ccc(CN3CCN(C)CC3)c(C(F)(F)F)c2)cc1C#Cc1cn(C(C)C)c2ncnc(N)c12 measured_quantity=IC50 result="≤ 5 nM"

----------
# SYSTEM UNDER TEST: ABL^T315I (Homo sapiens (Human), UniProt P00519, T315I)
# EXPERIMENTAL DETAILS: Biochemical kinase analysis, ABL T315I
MEASURED QUANTITY: IC50

item_smiles=Cc1ccc(C(=O)Nc2cccc(C(F)(F)F)c2)cc1C#Cc1cn(C(C)C)c2ncnc(N)c12 measured_quantity=IC50 result="5 to 50 nM"
item_smiles=Cc1ccc(C(=O)Nc2ccc(C)c(C(F)(F)F)c2)cc1C#Cc1cn([C@H]2CC[C@H](O)CC2)c2ncnc(N)c12 measured_quantity=IC50 result="5 to 50 nM"
item_smiles=Cc1ccc(C(=O)Nc2ccc(CN3CCN(C)CC3)c(C(F)(F)F)c2)cc1C#Cc1nc(C)n2ccnc(N)c12 measured_quantity=IC50 result="≤ 5 nM"
item_smiles=CCn1cc(C#Cc2cc(C(=O)Nc3cccc(C(F)(F)F)c3)ccc2C)c2c(N)ncnc21 measured_quantity=IC50 result="≤ 5 nM"
item_smiles=CCn1cc(C#Cc2cc(NC(=O)c3cc(-n4cnc(C)c4)cc(C(F)(F)F)c3)ccc2C)c2c(N)ncnc21 measured_quantity=IC50 result="5 to 50 nM"
item_smiles=Cc1cn(-c2cc(NC(=O)c3ccc(C)c(C#Cc4cn(C(C)C)c5ncnc(N)c45)c3)cc(C(F)(F)F)c2)cn1 measured_quantity=IC50 result="5 to 50 nM"
item_smiles=CCn1cc(C#Cc2cc(C(=O)Nc3cc(-n4cnc(C)c4)cc(C(F)(F)F)c3)ccc2C)c2c(N)ncnc21 measured_quantity=IC50 result="5 to 50 nM"
item_smiles=CCn1cc(C#Cc2cc(C(=O)Nc3ccc(CN4CCN(C)CC4)c(C(F)(F)F)c3)ccc2C)c2c(N)ncnc21 measured_quantity=IC50 result="≤ 5 nM"
item_smiles=CCn1cc(C#Cc2cccc(C(=O)Nc3cccc(C(F)(F)F)c3)c2)c2c(N)ncnc21 measured_quantity=IC50 result="≤ 5 nM"
item_smiles=CCn1cc(C#Cc2cc(C(=O)Nc3ccc(CN(C)C)c(C(F)(F)F)c3)ccc2C)c2c(N)ncnc21 measured_quantity=IC50 result="≤ 5 nM"
item_smiles=CCc1nc(C#Cc2cc(C(=O)Nc3ccc(CN4CCN(C)CC4)c(C(F)(F)F)c3)ccc2C)c2c(N)nccn12 measured_quantity=IC50 result="≤ 5 nM"
item_smiles=Cc1ccc(C(=O)Nc2ccc(CN3CCN(C)CC3)c(C(F)(F)F)c2)cc1C#Cc1cn([C@H]2CC[C@H](O)CC2)c2ncnc(N)c12 measured_quantity=IC50 result="≤ 5 nM"
item_smiles=CCn1cc(C#Cc2cc(NC(=O)c3cccc(C(F)(F)F)c3)ccc2C)c2c(N)ncnc21 measured_quantity=IC50 result="≤ 5 nM"
item_smiles=Cc1ccc(C(=O)Nc2ccc(CN3CCN(C)CC3)c(C(F)(F)F)c2)cc1C#Cc1cn(C)c2ncnc(N)c12 measured_quantity=IC50 result="≤ 5 nM"
item_smiles=Cc1ccc(NC(=O)c2ccc(C)c(C(F)(F)F)c2)cc1C#Cc1cn(C2CCCC2)c2ncnc(N)c12 measured_quantity=IC50 result="50 to 100 nM"
